meta.source: ChEMBL document CHEMBL1130718

Species: Homo sapiens
Assay: Ability to inhibit bone resorption in human osteoclast obtained from giant cell tumors of bone
Assay type: functional
measured.endpoint: IC50 (nM)
Supply the numeric figure in nM, leaving out any unit text.

Lookup: Look up IC50 for this molecule: CO/C(=C\C=C\c1cc2cc(Cl)c(Cl)cc2[nH]1)C(=O)NC1CC(C)(C)N(C)C(C)(C)C1
Found: 13.5

###

Experiment: Compound selectivity was assessed using vacuolar type proton ATPase from chicken adrenal glands (cAG)
Format: tissue-based, Adrenal gland
measured.endpoint: IC50 (nM)
Give the value, in units of nM, as a plain number.

Lookup: Field request: IC50 | item: CO/C(=C\C=C\c1cc2cc(Cl)c(Cl)cc2[nH]1)C(=O)NC1CC(C)(C)N(C)C(C)(C)C1
Found: 125
